Below is a list of entries, each paired with its recorded pIC50 value.
- EXPERIMENTAL_SYSTEM: PD-1/PD-L1 protein/protein interaction (Homo sapiens)
- Construct: Recombinant human PD-L1 protein (19-238) with a His-tag at the C-terminus; PD1-H5257 (PD-1-Fc)
- Sequence (Q9NZQ7 19-238): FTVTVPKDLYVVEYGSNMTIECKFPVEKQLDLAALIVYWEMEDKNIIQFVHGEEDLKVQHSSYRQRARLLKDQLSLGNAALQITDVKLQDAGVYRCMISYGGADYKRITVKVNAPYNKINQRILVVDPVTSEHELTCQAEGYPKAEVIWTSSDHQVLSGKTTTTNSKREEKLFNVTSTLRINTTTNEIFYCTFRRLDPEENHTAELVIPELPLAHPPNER
- PROTOCOL_TEXT: PD-1/PD-L1 Homogeneous Time-Resolved Fluorescence (HTRF) Binding Assay
- REPORTED_CONDITIONS: recombinant human PD-L1 (19-238) His-tag and human PD-1 (25-167) Fc tag; 25° C., PBS pH 7.4
pIC50: −log10 of the molar value.

See these solved cases before continuing.
molecule="Cc1c(NC(=O)c2cc(-c3ccncc3)c(CNCCO)cn2)cccc1-c1ccccc1 [Example 31]" result="7.00 to 8.00"
molecule="Cc1c(NC(=O)c2ccc(CN3CCCC[C@H]3C(=O)O)cn2)cccc1-c1ccccc1 [Example 1]" result="7.00 to 8.00"
molecule="Cc1c(NC(=O)c2ccc(CNCCO)cn2)ccnc1-c1ccccc1 [Example 43]" result="6.00 to 7.00"

// sample Cc1c(NC(=O)c2cc(CNCCO)ccn2)cccc1-c1ccccc1 [Example 23] , its pIC50 was 7.00 to 8.00

Short answer for Cc1c(NC(=O)c2cc(C#N)ccn2)cccc1-c1ccccc1 [Example 25] : pIC50 was 7.00 to 8.00

Reported pIC50 for Cc1c(NC(=O)c2cc(OCC3CC3)c(CNCCO)cn2)cccc1-c1ccccc1 [Example 34] was 7.00 to 8.00

Per the records, this molecule ( Cc1c(NC(=O)c2cc(OCc3ccccn3)c(CNCCO)cn2)cccc1-c1ccccc1 [Example 20] ) has pIC50 equal to 7.00 to 8.00

Lab note: measured pIC50 of Cc1cc(C(=O)Nc2cccc(-c3ccccc3)c2C)ncc1CNCCO [Example 33] was ≥ 8.00

Entry Cc1c(NC(=O)c2ccncn2)cccc1-c1ccccc1 [Example 27] ; pIC50 = 7.00 to 8.00

Quick note, pIC50 for Cc1c(NC(=O)c2ccc(CNCCO)cn2)cccc1-c1ccccc1 [Example 2] landed at 7.00 to 8.00

pIC50 recorded for this molecule, Cc1c(NC(=O)c2ncc(CNCCO)cc2F)cccc1-c1ccccc1 [Example 17] , is 7.00 to 8.00

Documented pIC50 of N#Cc1c(NC(=O)c2ccc(CNCCO)cn2)cccc1C1=COCCC1 [Example 44] : 7.00 to 8.00

# pIC50 of N#Cc1c(NC(=O)c2ccc(CN3CCCC[C@H]3C(=O)O)cn2)cccc1-c1ccccc1 [Example 7] = 7.00 to 8.00

Just so you know, measured pIC50 for Cc1c(NC(=O)c2ncc(CNCCO)cc2Cl)cccc1-c1ccccc1 [Example 16] came out at 7.00 to 8.00

Sure, the documented pIC50 for Cc1cc(C(=O)Nc2cccc(-c3ccccc3)c2C)ncc1CN1CCCC[C@H]1C(=O)O [Example 32] is ≥ 8.00
